# Tested on: SK-MEL-28 melanoma
# assay.method.text: NCI tumour cell line growth inhibition, 48 h
Kindly supply the reported TGI values for the records listed here.
Give bare numbers, in µM.

- molecule: "ClCc1c(Cl)c(Cl)c(Cl)c(CCl)c1Cl"
  units.text: "µM"
  TGI: 3.96
- molecule: "O=S1C2=C(Cc3ccccc3)C(Cc3ccccc3)=C1CCc1cccc(c1)CC2"
  units.text: "µM"
  TGI: 42.3

Tested system SK-MEL-28 melanoma; TGI recorded for CC(=O)Nc1ccc2c3c(cc(O)c2c1)N(C(=O)CCCCC(=O)Nc1ccc2c4c(cc(O)c2c1)N(C(=O)OC(C)(C)C)CC4CCl)CC3CCl (stereo not given) was 23.2

* * *

# System: MDA-MB-435
# assay.method.text: NCI tumour cell line growth inhibition, 48 h
Rule: y for TGI not less than 30 µM, n for anything less.

- molecule: "CC1(C)N=C(N)N=C(N)N1c1cccc(OCCOc2ccc([N+](=O)[O-])cc2)c1"
  study.system: "MDA-MB-435"
  class.assignment: "y"
- molecule: "CN(C)c1ccc2cc(-c3ccccc3F)c(N)nc2c1"
  study.system: "MDA-MB-435"
  class.assignment: "n"

Now let's try a different one.
Kindly determine if TGI recorded for NCc1ccc(C(=O)O)cc1 is above or exactly 30 µM.
y

* * *

Kindly supply the reported TGI values for the records listed here.
# Tested on: SF-539 CNS
# assay.method.text: NCI tumour cell line growth inhibition, 48 h

- compound: "Cc1c(NC(=S)Nc2ccc(Cl)cc2)c(=O)n(-c2ccccc2)n1C"
  reported.result: "> 100 µM"
- compound: "N#CC1(C#N)NC(c2ccsc2)C(C#N)(C#N)NC1c1ccsc1 (stereo unspecified)"
  reported.result: "> 100 µM"
- compound: "C[Si](C)(OCCS(=O)(=O)O)C1S(=O)(=O)OCCOS1(=O)=O"
  reported.result: "> 100 µM"

Parameters: items (list). Returns: TGI for each item.
1. Cn1c2ccccc2c(=NNc2ccc(C(=O)O)cc2)c2ccccc21
2. COc1ccc2c(c1)c1c(n2CCN2CCCCC2)-c2ccccc2CC1
3. O=C(CCl)N1c2ccccc2Sc2c1ccc1ccccc21

1. 49.9 µM
2. 27.4 µM
3. 4.81 µM

Parameters: items (list). Returns: TGI for each item.
1. CCOC(=O)C(NC(=O)Nc1ccc(Cl)c(Cl)c1)C(F)(F)F (stereo unspecified)
2. CC(=O)n1c2ccccc2c2nc3nc(Oc4ccc(C)cc4)c4ccccc4c3cc21
3. CCCCCCCCCc1cc(=O)c2ccc(O)cc2o1
4. CSC1=C(c2ccc(Cl)cc2)SC(N2CCCCC2)N1c1ccc([N+](=O)[O-])cc1 (stereo unspecified)
5. O=C1CC[C@@H](S(=O)(=O)c2ccccc2)[C@@H](/C=C/c2ccccc2)O1
6. CSc1ccc(/C=C2\N=C(c3ccccc3)N(c3nc4ccc(Sc5ccccc5)cc4[nH]3)C2=O)cc1

["> 100 µM", "> 100 µM", "> 100 µM", "56.5 µM", "> 100 µM", "32.5 µM"]

Parameters: items (list). Returns: TGI for each item.
1. CC(C)CCn1c(=O)c2c(=O)[nH][nH]c2c2ccccc21
2. N#Cc1ccc(OCc2nc3cc(C(F)(F)F)ccc3nc2-c2ccccc2)cc1
3. COc1cc(C2c3cc4c(cc3[C@@H](Nc3cccc(C(C)=O)c3)C3COC(=O)[C@H]23)OCO4)cc(OC)c1O (stereo partly specified)
4. CCOC(=O)CCC(NC(=O)c1ccc(N2CCN(c3c(C)nc(N)nc3N)CC2)cc1)C(=O)OCC (stereo unspecified)
5. COc1cc(Cn2c3c(c4c(C(=O)NCCN(C)C)c(O)ccc42)C(=O)c2ccccc2C3=O)cc(OC)c1

> 100 µM
> 100 µM
1.24 µM
> 100 µM
3.4 µM

Parameters: items (list). Returns: TGI for each item.
1. c1ccc(CSc2nc(N3CCOCC3)c3cn[nH]c3n2)cc1
2. Cn1c(-c2ccc(/C=N\N3CCN(/N=C/c4ccc(-c5c[n+]6ccccc6n5C)cc4)CC3)cc2)c[n+]2ccccc12

1: 56.4 µM; 2: > 100 µM

* * *

Kindly supply the reported TGI values for the records listed here.
# Tested on: T-47D breast
# assay.method.text: NCI tumour cell line growth inhibition, 48 h

Recorded results for 5 compounds are shown here.
- compound: "Cc1nnc2n1-c1ccccc1C(=S)N1CSCC21 (stereo unspecified)"
  study.system: "T-47D breast"
  readout.kind: "TGI"
  reported.result: "> 100 µM"
- compound: "CCCCCCCCCCCC[n+]1ccc(CCCCCCCCC)cc1"
  study.system: "T-47D breast"
  readout.kind: "TGI"
  reported.result: "1.54 µM"
- compound: "CCOc1ccc(NCc2cc(OC)c(OC)c(OC)c2)cc1"
  study.system: "T-47D breast"
  readout.kind: "TGI"
  reported.result: "> 100 µM"
- compound: "O=C(CSCC(=O)N/N=C\\c1ccc(-c2ccccc2)cc1)N/N=C\\c1ccc(-c2ccccc2)cc1"
  study.system: "T-47D breast"
  readout.kind: "TGI"
  reported.result: "> 100 µM"
- compound: "CC(=O)OCC1OC(n2ccc(=O)[nH]c2=O)C(OC(C)=O)C1OC(C)=O (stereo unspecified)"
  study.system: "T-47D breast"
  readout.kind: "TGI"
  reported.result: "> 100 µM"

In the following, a different compound is considered.
Tested system T-47D breast; TGI recorded for COc1cc(-c2cn(-c3ccc(Cl)cc3)c(C)c2C(=O)C(F)(F)F)cc(OC)c1OC was > 100 µM

* * *

# System: CAKI-1 renal
# assay.method.text: NCI tumour cell line growth inhibition, 48 h; in the data active means GI50 below about 0.43 µM; inactive means the rest
API: response.call in active, inactive

- compound: "c1cnc2[nH]cc(-c3csc(-c4cn(CCCCN5CCOCC5)c5ccccc45)n3)c2c1"
  class.assignment: "inactive"

Recorded call for COC(=O)CNC(=O)[C@@H](OC)[C@@H]1Cc2cc3cc(OC4CC(OC5CC(O)C(O)C(C)O5)C(O)C(C)O4)c(C)c(O)c3c(O)c2C(=O)[C@H]1OC1CC(OC2CC(OC3CC(C)(O)C(O)C(C)O3)C(O)C(C)O2)C(O)C(C)O1 (some centres undefined) ?
active

Recorded call for CCOP(=O)(OCC)C(NC(c1ccccc1)c1ccccc1)c1cccc2ccccc12 (centres undefined) ?
inactive

Recorded call for O=C1C(Cl)=C(Nc2cccc(O)c2)C(=O)N1c1cc(Cl)c(Cl)cc1Cl ?
inactive

Recorded call for CC(CNC(Cc1ccccc1)c1ccccc1)NC(Cc1ccccc1)c1ccccc1 (centres undefined) ?
inactive

* * *

# Tested on: CCRF-CEM leukemia
# assay.method.text: NCI tumour cell line growth inhibition, 48 h
readout.kind: GI50

Recorded results for 3 compounds are shown here.
- compound: "COc1cc[nH]c1/C=C1\\C(=O)Nc2ccc(F)c(I)c21"
  study.system: "CCRF-CEM leukemia"
  reported.result: "> 25 µM"
- compound: "COc1c(N2CCN(CN3C(=O)C(=Nc4ccc(S(=O)(=O)Nc5ncccn5)cc4)c4ccccc43)C(C)C2)c(F)cc2c(=O)c(C(=O)O)cn(C3CC3)c12 (stereo not given)"
  study.system: "CCRF-CEM leukemia"
  reported.result: "44.4 µM"
- compound: "CC(CNC(Cc1ccccc1)c1ccccc1)NC(Cc1ccccc1)c1ccccc1 (stereo not given)"
  study.system: "CCRF-CEM leukemia"
  reported.result: "2.74 µM"

Parameters: items (list). Returns: GI50 for each item.
1. CC[C@H](CC#N)OC(=O)N[C@@H](C)c1cccc(NC(=O)Nc2ccc(-c3cnco3)c(OC)c2)c1
2. CCN(Cc1ccccc1OC)c1ccc(CO)c(Cl)c1
3. Nc1cc(N)c(N)cc1N
4. C#CC[C@@H]1C[C@]2(C)[C@H]3CC=C4[C@H]5CC(C)(C)CC[C@]5(C(=O)NCCCCN)CC[C@@]4(C)[C@]3(C)CC[C@H]2C(C)(C)[C@H]1OC(C)=O
5. CO/N=C(\C)c1ccc(Nc2cc(-c3ccccc3)nc3c(O)cccc23)cc1
6. COC(=O)c1cc(C#Cc2cc(OC)ccc2OC)ccc1OC
7. COc1cc(Nc2nc(N[C@H]3CCCC[C@@H]3N)nc3cc[nH]c(=O)c23)cc(OC)c1

< 0.023 µM
19 µM
3.43 µM
1.93 µM
6.64 µM
36.8 µM
1.39 µM

* * *

# Test system: MDA-MB-231 breast
# assay.method.text: NCI tumour cell line growth inhibition, 48 h; in the data active means GI50 below about 0.43 µM; inactive means the rest
API: response.call in active, inactive

A selection of reference data follows.
- compound: "CN(C)c1ccc2cc(-c3ccccc3F)c(N)nc2c1"
  study.system: "MDA-MB-231 breast"
  class.assignment: "inactive"
- compound: "COc1cc[nH]c1/C=C1\\C(=O)Nc2ccc(F)c(I)c21"
  study.system: "MDA-MB-231 breast"
  class.assignment: "inactive"
- compound: "CCCCN(Cc1ccc(F)cc1)c1ccc(CO)c(Cl)c1"
  study.system: "MDA-MB-231 breast"
  class.assignment: "inactive"
- compound: "COC(=O)CNC(=O)[C@@H](OC)[C@@H]1Cc2cc3cc(OC4CC(OC5CC(O)C(O)C(C)O5)C(O)C(C)O4)c(C)c(O)c3c(O)c2C(=O)[C@H]1OC1CC(OC2CC(OC3CC(C)(O)C(O)C(C)O3)C(O)C(C)O2)C(O)C(C)O1 (stereo partly specified)"
  study.system: "MDA-MB-231 breast"
  class.assignment: "active"
- compound: "CN(CCOc1ccc(C#N)cc1)CCOc1ccc(C#N)cc1"
  study.system: "MDA-MB-231 breast"
  class.assignment: "inactive"

Recorded call for Cc1nc2sc(C(=O)Nc3ccccc3)c(N)c2cc1C(=O)/C=C/c1ccccc1 ?
inactive

Recorded call for CO/N=C(\C)c1ccc(Nc2cc(-c3ccccc3)nc3c(O)cccc23)cc1 ?
inactive

Recorded call for C#CC[C@@H]1C[C@]2(C)[C@H]3CC=C4[C@H]5CC(C)(C)CC[C@]5(C(=O)NCCCCN)CC[C@@]4(C)[C@]3(C)CC[C@H]2C(C)(C)[C@H]1OC(C)=O ?
inactive
